Reference for the values: the supplement of paper PMC6555819

# Tested on: RXRa DBDmut IVT, anti-RXR (DBD mutation: RXRa K156A/R161A, NR concentration 90 nM)
# PROCEDURE TEXT: PBM binding z-score (relative to random genomic background probes); higher = stronger binding; sequences stand for … in GC…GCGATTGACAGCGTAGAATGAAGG
Label 0.0 if PBM binding z-score falls below 1; label 1.0 in every other case.

[
  {
    "RESIDUE STRING": "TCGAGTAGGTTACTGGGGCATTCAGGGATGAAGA",
    "GROUP LABEL": 0.0
  },
  {
    "RESIDUE STRING": "TCGAGTAGGCTACGGGGGCATTCAGGGATGAAGA",
    "GROUP LABEL": 0.0
  },
  {
    "RESIDUE STRING": "CGAACTAGGTCACTAGGACAGTGAAGAGGTTGGA",
    "GROUP LABEL": 1.0
  },
  {
    "RESIDUE STRING": "CCGAGTAGGTTACGAGGGGGCACTCAGTGCGAAT",
    "GROUP LABEL": 0.0
  },
  {
    "RESIDUE STRING": "ATATGTAGGTTCCATCCGGGTCATTCAGGCTATG",
    "GROUP LABEL": 0.0
  }
]

Threshold query (PBM binding z-score >= 1) on `TCTTGTAGATCAAAGCTTAAGAAAGCCGAAGCCT`
0.0

# check: PBM binding z-score of `CACACTAGGTCAAAGGTCAAAGTCGAGCCAACCA` is greater than or equal to 1
1.0

Check this sequence for PBM binding z-score at or above 1: `TCATATAGGTAATCAGGTGAAAGTCCGTAAGTTA`
1.0

# bool: PBM binding z-score of `ATCGAACGGTCGAGGTGAGTATAGAGAAAGGGAA` >= 1
0.0

Does `TCTGCTAGGTCAGGTGGTCAGCTAACGAGCTGCC` have a reported PBM binding z-score of at least 1?
0.0

Decide: is the reported value of PBM binding z-score for `CTATGTAGGTTAAGGGGCTCATTCAGTTTGAAAG` equal to or greater than 1?
0.0

Decide: is the reported value of PBM binding z-score for `CGACCTAGGTCAAAGGACAGTGAAAGGCGACGTA` equal to or greater than 1?
1.0

Determine whether measured PBM binding z-score meets or exceeds 1 for `CGTCCAAGGTCAAGCTCAGTGAAAGAGACTCGAA`
1.0

Is PBM binding z-score for `ATATGTAGGTTAGGTTCATTCAGAAAGTAGGGAA` at or above 1?
1.0

----------
# Tested on: LXRb:RXRa (NR concentration 270 nM, RXRa partner concentration 90 nM)
# PROCEDURE TEXT: PBM binding z-score (relative to random genomic background probes); higher = stronger binding; sequences stand for … in GC…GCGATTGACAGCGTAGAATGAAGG
Tick satisfied if PBM binding z-score is 3 or greater. Tick not satisfied if PBM binding z-score is less than 3.

Examples with answers:
[
  {
    "RESIDUE STRING": "ATATGTAGGTAACATCCGGGTCATTCAGGCTATG",
    "ASSAYED TARGET": "LXRb:RXRa (NR concentration 270 nM, RXRa partner concentration 90 nM)",
    "GROUP LABEL": "not satisfied"
  },
  {
    "RESIDUE STRING": "CCTTACGGGTCTAGGTTATAGCACGGGTGGTACG",
    "ASSAYED TARGET": "LXRb:RXRa (NR concentration 270 nM, RXRa partner concentration 90 nM)",
    "GROUP LABEL": "not satisfied"
  },
  {
    "RESIDUE STRING": "CCTAGTTGGTCAGGAGGTCACATACCGGATATGA",
    "ASSAYED TARGET": "LXRb:RXRa (NR concentration 270 nM, RXRa partner concentration 90 nM)",
    "GROUP LABEL": "satisfied"
  },
  {
    "RESIDUE STRING": "CCTAGTTGGTCAGGAGGTCACAAACCGGATATGA",
    "ASSAYED TARGET": "LXRb:RXRa (NR concentration 270 nM, RXRa partner concentration 90 nM)",
    "GROUP LABEL": "satisfied"
  },
  {
    "RESIDUE STRING": "TCTAGTTGGTGACGGAGGTCACACACGACGGGTA",
    "ASSAYED TARGET": "LXRb:RXRa (NR concentration 270 nM, RXRa partner concentration 90 nM)",
    "GROUP LABEL": "not satisfied"
  },
  {
    "RESIDUE STRING": "CGAAGTAGGTCACCAGGACAGTGAAGAGGTTGGA",
    "ASSAYED TARGET": "LXRb:RXRa (NR concentration 270 nM, RXRa partner concentration 90 nM)",
    "GROUP LABEL": "not satisfied"
  }
]

Record `GCTGCTAGGTTAACTGATGGTCAGCTAAAGCTCG` ; criterion: PBM binding z-score no lower than 3. Met?
not satisfied

Item `CGAACTAGGTCAAAGGACAGGGAAAGGCGACGTA` with PBM binding z-score of 3 or above?
not satisfied

Hello, I need to know if `ATATGTAGGTTACGTCCGGGTCATTCAGGCTATG` has measured PBM binding z-score not below 3. Thanks!
satisfied

Hi team, for `CCGACTGGGGCAAAGGTTACGATACTCAGTACGA` , is the recorded PBM binding z-score at or above 3?
not satisfied
